Test system: A549 (human lung carcinoma)
Assay: Proliferation arrest and loss of viability (cell number and propidium iodide, flow cytometry)
Format: cell-based
Conditions: A549, 48 h; read-out: Loss of Viability IC50
Measured endpoint: IC50 (µM)
Please respond with the number in µM and leave the unit unwritten.

Asked: Report value only: IC50, A549 (human lung carcinoma), N[C@@H](CCC(=O)N[C@@H](CSCC(=O)Nc1ccc([As]=O)cc1)C(=O)NCC(=O)O)C(=O)O (stereo partly shown) [GSAO]
Given back: 150

###

System: HL60 (human erythroid leukaemia)
Test: Proliferation arrest and loss of viability (cell number and propidium iodide, flow cytometry)
Type: cell-based
Settings: HL60, 48 h; read-out: Proliferation Arrest IC50
Measured endpoint: IC50

Asked: Answer with the recorded IC50 for the compound listed here: N[C@@H](CCC(=O)N[C@@H](CSCC(=O)Nc1ccc([As]=O)cc1)C(=O)NCC(=O)O)C(=O)O (stereo partly shown) [GSAO]
Given back: 50 µM
